Molecular target: GST-SBP-SLBP (stem-loop binding protein) (Homo sapiens, UniProt Q14493 1-270)
Assay: targeted RNA Bind-n-Seq; RBNS binding buffer: 25 mM Tris pH 7.5, 150 mM KCl, 3 mM MgCl2, 0.1% Tween, 0.5 mg/mL BSA, 1 mM DTT; 27 nM protein, 750 pM RNA pool; temperature not stated; high values mean tight binding
Conditions: protein: recombinant; tags: N-terminal GST and SBP (pGEX6P1-SBP); structured_RNA
Whole data set: some 11,000 sequences, median “log2 fold change” near 0.00022, cut for the highest 2% near 0.34. Some of the results follow.
As shown below, each of these sequences has a reported binding signal value.
propertyName: binding signal (log2 fold change)

{"sequenceText": "GGUCACGUCUCAAUCAACUCUUCCGAGGGGGGGAAAACCCCUUUACCCUCACUAUCAACAGCUCGCAGUCAAG", "propertyName": "binding signal", "valueUnits": "log2 fold change", "observed": 0.347}
{"sequenceText": "GGUCACGUCUCAAUCAACUCUUUUUCCAGGGAAAGCCCUGGCAUGUUCAACAGCUCGCAGUCAAG", "propertyName": "binding signal", "valueUnits": "log2 fold change", "observed": 0.337}
{"sequenceText": "GGUCACGUCUCAAUCAACUCCUUAGAGGGGGGGAAAACCCCUUUACCCUCAAAAUCAACAGCUCGCAGUCAAG", "propertyName": "binding signal", "valueUnits": "log2 fold change", "observed": 0.546}
{"sequenceText": "GGUCACGUCUCAAUCAACUCAGUUCCCAGGGAAAGCCCUGGCAUUUUCAACAGCUCGCAGUCAAG", "propertyName": "binding signal", "valueUnits": "log2 fold change", "observed": 0.449}
{"sequenceText": "GGUCACGUCUCAAUCAACUCAAUAGAGGGGGGGAAAACCCCUUUGCCCUCAAUCUCAACAGCUCGCAGUCAAG", "propertyName": "binding signal", "valueUnits": "log2 fold change", "observed": 0.451}
{"sequenceText": "GGUCACGUCUCAAUCAACUCAUCCCCCAGGGAAAUCCCUGGCUUACUCAACAGCUCGCAGUCAAG", "propertyName": "binding signal", "valueUnits": "log2 fold change", "observed": 0.468}
{"sequenceText": "GGUCACGUCUCAAUCAACUCUAUUUCCAGGGAAAUCCCUGGCUUAUUCAACAGCUCGCAGUCAAG", "propertyName": "binding signal", "valueUnits": "log2 fold change", "observed": 0.488}
{"sequenceText": "GGUCACGUCUCAAUCAACUCAAUAGAGGGGGGGAAAACCCCUUUGCCCUCAACAUCAACAGCUCGCAGUCAAG", "propertyName": "binding signal", "valueUnits": "log2 fold change", "observed": 0.421}
{"sequenceText": "GGUCACGUCUCAAUCAACUCACUAGAGGGGGGGAAAACCCCUUUACCCUCAUCGUCAACAGCUCGCAGUCAAG", "propertyName": "binding signal", "valueUnits": "log2 fold change", "observed": 0.311}
{"sequenceText": "GGUCACGUCUCAAUCAACUCCAUAGAGGGGGGGAAAACCCCUUUGCCCUCGAAAUCAACAGCUCGCAGUCAAG", "propertyName": "binding signal", "valueUnits": "log2 fold change", "observed": 0.382}
{"sequenceText": "GGUCACGUCUCAAUCAACUCAAUGGAGGGGGGGAAAACCCCUUUACCCUCAAAAUCAACAGCUCGCAGUCAAG", "propertyName": "binding signal", "valueUnits": "log2 fold change", "observed": 0.547}
{"sequenceText": "GGUCACGUCUCAAUCAACUCAACUCCCAGGGAAAUCCCUGGUUAUCUCAACAGCUCGCAGUCAAG", "propertyName": "binding signal", "valueUnits": "log2 fold change", "observed": 0.334}
{"sequenceText": "GGUCACGUCUCAAUCAACUCUUUUUCCAGGGAAAGCCCUGGCUAUGUCAACAGCUCGCAGUCAAG", "propertyName": "binding signal", "valueUnits": "log2 fold change", "observed": 0.31}
{"sequenceText": "GGUCACGUCUCAAUCAACUCCUUAGAGGGGGGGAAAACCCCUUUACCCUCAACCUCAACAGCUCGCAGUCAAG", "propertyName": "binding signal", "valueUnits": "log2 fold change", "observed": 0.395}
{"sequenceText": "GGUCACGUCUCAAUCAACUCUAUUUCCAGGGAAAUCCCUGGCUAACUCAACAGCUCGCAGUCAAG", "propertyName": "binding signal", "valueUnits": "log2 fold change", "observed": 0.335}
{"sequenceText": "GGUCACGUCUCAAUCAACUCAUCUUCCAGGGAAAGCCCUGGCUUUCUCAACAGCUCGCAGUCAAG", "propertyName": "binding signal", "valueUnits": "log2 fold change", "observed": 0.425}

====

Biological target: GST-SBP-SLBP (stem-loop binding protein) (Homo sapiens, UniProt Q14493 1-270)
Test: targeted RNA Bind-n-Seq; RBNS binding buffer: 25 mM Tris pH 7.5, 150 mM KCl, 3 mM MgCl2, 0.1% Tween, 0.5 mg/mL BSA, 1 mM DTT; 27 nM protein, 750 pM RNA pool; temperature not stated; high values mean tight binding
Conditions: protein: recombinant; tags: N-terminal GST and SBP (pGEX6P1-SBP); structured_RNA
Over roughly 11,000 sequences, “log2 fold change” has its median near 0.00022; the highest 2% begin near 0.34. The list shows a part of the results.
propertyName: binding signal

{"sequenceText": "GGUCACGUCUCAAUCAACUCAAUCCCCAGGGAAAUCCCUGGCUUACUCAACAGCUCGCAGUCAAG", "propertyName": "binding signal", "observed": "0.371 log2 fold change"}
{"sequenceText": "GGUCACGUCUCAAUCAACUCUAUCCCCAGGGAAACCCCUGGCUUACUCAACAGCUCGCAGUCAAG", "propertyName": "binding signal", "observed": "0.376 log2 fold change"}
{"sequenceText": "GGUCACGUCUCAAUCAACUCAUUUCCCAGGGAAAGCCCUGGUAAUCUCAACAGCUCGCAGUCAAG", "propertyName": "binding signal", "observed": "0.334 log2 fold change"}
{"sequenceText": "GGUCACGUCUCAAUCAACUCUAUCCCCAGGGAAAACCCUGGCUAUCUCAACAGCUCGCAGUCAAG", "propertyName": "binding signal", "observed": "0.336 log2 fold change"}
{"sequenceText": "GGUCACGUCUCAAUCAACUCAUCCUCCAGGGAAAACCCUGGCAUAUUCAACAGCUCGCAGUCAAG", "propertyName": "binding signal", "observed": "0.384 log2 fold change"}
{"sequenceText": "GGUCACGUCUCAAUCAACUCUAUCCCCAGGGAAAGCCCUGGCUUACUCAACAGCUCGCAGUCAAG", "propertyName": "binding signal", "observed": "0.3 log2 fold change"}
{"sequenceText": "GGUCACGUCUCAAUCAACUCCAUAGAGGGGGGGAAAACCCCUUUGCCCUCAUUUUCAACAGCUCGCAGUCAAG", "propertyName": "binding signal", "observed": "0.381 log2 fold change"}
{"sequenceText": "GGUCACGUCUCAAUCAACUCUAUCUCCAGGGAAAACCCUGGCUAACUCAACAGCUCGCAGUCAAG", "propertyName": "binding signal", "observed": "0.369 log2 fold change"}

====

Biological target: GST-SBP-SLBP (stem-loop binding protein) (Homo sapiens, UniProt Q14493 1-270)
Assay: targeted RNA Bind-n-Seq; RBNS binding buffer: 25 mM Tris pH 7.5, 150 mM KCl, 3 mM MgCl2, 0.1% Tween, 0.5 mg/mL BSA, 1 mM DTT; 27 nM protein, 750 pM RNA pool; temperature not stated; high values mean tight binding
Conditions: protein: recombinant; tags: N-terminal GST and SBP (pGEX6P1-SBP); structured_RNA
The full ranking holds about 11,000 sequences; the median of “log2 fold change” is about 0.00022, and the highest 2% start at about 0.34. The list shows a part of the results.

{"sequenceText": "GGUCACGUCUCAAUCAACUCCUUAGAGGGGGGGAAAACCCCUUUGCCCUCACCGUCAACAGCUCGCAGUCAAG", "targetDesc": "GST-SBP-SLBP (stem-loop binding protein) (Homo sapiens, UniProt Q14493 1-270)", "binding signal / log2 fold change": 0.412}
{"sequenceText": "GGUCACGUCUCAAUCAACUCCUUAGAGGGGGGGAAAACCCCUUUGCCCUCAACAUCAACAGCUCGCAGUCAAG", "targetDesc": "GST-SBP-SLBP (stem-loop binding protein) (Homo sapiens, UniProt Q14493 1-270)", "binding signal / log2 fold change": 0.411}
{"sequenceText": "GGUCACGUCUCAAUCAACUCUAAGGAGGGGGGGAAAACCCCUUUACCCUCAUCAUCAACAGCUCGCAGUCAAG", "targetDesc": "GST-SBP-SLBP (stem-loop binding protein) (Homo sapiens, UniProt Q14493 1-270)", "binding signal / log2 fold change": 0.486}
{"sequenceText": "GGUCACGUCUCAAUCAACUCUAACGAGGGGGGGAAAACCCCUUUACCCUCAACUUCAACAGCUCGCAGUCAAG", "targetDesc": "GST-SBP-SLBP (stem-loop binding protein) (Homo sapiens, UniProt Q14493 1-270)", "binding signal / log2 fold change": 0.426}
{"sequenceText": "GGUCACGUCUCAAUCAACUCUAAGGAGGGGGGGAAAACCCCUUUACCCUCACACUCAACAGCUCGCAGUCAAG", "targetDesc": "GST-SBP-SLBP (stem-loop binding protein) (Homo sapiens, UniProt Q14493 1-270)", "binding signal / log2 fold change": 0.396}
{"sequenceText": "GGUCACGUCUCAAUCAACUCCUUAGAGGGGGGGAAAACCCCUUUGCCCUCGUUUUCAACAGCUCGCAGUCAAG", "targetDesc": "GST-SBP-SLBP (stem-loop binding protein) (Homo sapiens, UniProt Q14493 1-270)", "binding signal / log2 fold change": 0.342}
{"sequenceText": "GGUCACGUCUCAAUCAACUCGCAAGAGGGGGGGAAAACCCCUUUACCCUCAAAUUCAACAGCUCGCAGUCAAG", "targetDesc": "GST-SBP-SLBP (stem-loop binding protein) (Homo sapiens, UniProt Q14493 1-270)", "binding signal / log2 fold change": 0.308}
